- Measured on: calcium channel (specifically bound 3H-nitrendipine, heart membranes) (Oryctolagus cuniculus)
- Construct: The heart is immediately removed, cleaned and chopped into small pieces
- Sequence (P15381 whole entry, other chains not shown): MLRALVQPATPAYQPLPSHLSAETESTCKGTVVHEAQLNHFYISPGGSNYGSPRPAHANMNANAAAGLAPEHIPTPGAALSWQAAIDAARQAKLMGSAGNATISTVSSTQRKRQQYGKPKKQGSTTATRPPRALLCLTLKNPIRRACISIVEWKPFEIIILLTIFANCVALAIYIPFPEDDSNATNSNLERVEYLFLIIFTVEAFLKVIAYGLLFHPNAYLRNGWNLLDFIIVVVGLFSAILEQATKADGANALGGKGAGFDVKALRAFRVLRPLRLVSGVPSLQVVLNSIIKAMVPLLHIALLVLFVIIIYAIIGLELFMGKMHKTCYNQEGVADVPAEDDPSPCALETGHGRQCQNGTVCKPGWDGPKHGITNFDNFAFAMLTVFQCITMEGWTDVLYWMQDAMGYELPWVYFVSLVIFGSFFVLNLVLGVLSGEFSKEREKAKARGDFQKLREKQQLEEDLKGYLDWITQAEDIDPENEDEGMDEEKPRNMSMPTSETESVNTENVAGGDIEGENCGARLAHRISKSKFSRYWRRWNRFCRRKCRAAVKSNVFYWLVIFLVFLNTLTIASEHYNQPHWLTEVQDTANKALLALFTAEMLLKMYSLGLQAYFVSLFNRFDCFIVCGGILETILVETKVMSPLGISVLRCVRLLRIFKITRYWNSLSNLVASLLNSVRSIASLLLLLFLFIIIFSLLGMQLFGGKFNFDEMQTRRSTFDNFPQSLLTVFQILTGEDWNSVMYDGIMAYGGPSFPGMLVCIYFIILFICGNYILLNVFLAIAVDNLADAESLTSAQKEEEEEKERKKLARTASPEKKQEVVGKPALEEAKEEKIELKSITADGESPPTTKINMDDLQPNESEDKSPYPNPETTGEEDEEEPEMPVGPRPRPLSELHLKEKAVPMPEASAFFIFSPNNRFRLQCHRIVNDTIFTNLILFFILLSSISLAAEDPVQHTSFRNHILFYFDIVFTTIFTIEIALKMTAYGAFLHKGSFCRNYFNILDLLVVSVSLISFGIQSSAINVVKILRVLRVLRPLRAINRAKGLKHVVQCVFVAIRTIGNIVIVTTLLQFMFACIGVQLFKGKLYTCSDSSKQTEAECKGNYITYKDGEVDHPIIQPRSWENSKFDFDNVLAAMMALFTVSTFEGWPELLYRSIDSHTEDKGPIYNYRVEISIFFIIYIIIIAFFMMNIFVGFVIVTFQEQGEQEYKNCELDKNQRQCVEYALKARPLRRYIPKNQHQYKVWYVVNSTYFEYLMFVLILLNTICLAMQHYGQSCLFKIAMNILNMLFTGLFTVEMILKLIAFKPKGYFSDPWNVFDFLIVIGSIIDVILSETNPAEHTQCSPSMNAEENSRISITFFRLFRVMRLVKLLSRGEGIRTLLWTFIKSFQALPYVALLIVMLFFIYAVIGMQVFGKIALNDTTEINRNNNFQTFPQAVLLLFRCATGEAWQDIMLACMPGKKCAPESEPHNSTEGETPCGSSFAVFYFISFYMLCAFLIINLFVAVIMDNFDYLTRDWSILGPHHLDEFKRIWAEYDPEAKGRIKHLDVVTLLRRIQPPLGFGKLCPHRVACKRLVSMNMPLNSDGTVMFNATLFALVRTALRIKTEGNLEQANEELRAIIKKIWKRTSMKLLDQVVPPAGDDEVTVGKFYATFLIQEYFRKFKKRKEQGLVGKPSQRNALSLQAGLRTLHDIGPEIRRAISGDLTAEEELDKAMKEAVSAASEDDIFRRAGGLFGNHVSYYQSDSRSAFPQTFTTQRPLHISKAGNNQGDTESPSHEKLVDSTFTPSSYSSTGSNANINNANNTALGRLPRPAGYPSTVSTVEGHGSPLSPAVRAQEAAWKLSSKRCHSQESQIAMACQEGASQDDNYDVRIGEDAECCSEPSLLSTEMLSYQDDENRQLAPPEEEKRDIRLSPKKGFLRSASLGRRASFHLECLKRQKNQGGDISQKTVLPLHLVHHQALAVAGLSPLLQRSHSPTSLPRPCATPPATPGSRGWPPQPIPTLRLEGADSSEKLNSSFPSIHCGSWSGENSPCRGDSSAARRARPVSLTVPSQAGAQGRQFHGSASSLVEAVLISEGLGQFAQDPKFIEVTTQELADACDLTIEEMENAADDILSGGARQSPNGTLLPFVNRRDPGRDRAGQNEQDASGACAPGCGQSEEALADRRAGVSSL
- Sequence (P13806 27-960 partner limits assumed, other chains not shown): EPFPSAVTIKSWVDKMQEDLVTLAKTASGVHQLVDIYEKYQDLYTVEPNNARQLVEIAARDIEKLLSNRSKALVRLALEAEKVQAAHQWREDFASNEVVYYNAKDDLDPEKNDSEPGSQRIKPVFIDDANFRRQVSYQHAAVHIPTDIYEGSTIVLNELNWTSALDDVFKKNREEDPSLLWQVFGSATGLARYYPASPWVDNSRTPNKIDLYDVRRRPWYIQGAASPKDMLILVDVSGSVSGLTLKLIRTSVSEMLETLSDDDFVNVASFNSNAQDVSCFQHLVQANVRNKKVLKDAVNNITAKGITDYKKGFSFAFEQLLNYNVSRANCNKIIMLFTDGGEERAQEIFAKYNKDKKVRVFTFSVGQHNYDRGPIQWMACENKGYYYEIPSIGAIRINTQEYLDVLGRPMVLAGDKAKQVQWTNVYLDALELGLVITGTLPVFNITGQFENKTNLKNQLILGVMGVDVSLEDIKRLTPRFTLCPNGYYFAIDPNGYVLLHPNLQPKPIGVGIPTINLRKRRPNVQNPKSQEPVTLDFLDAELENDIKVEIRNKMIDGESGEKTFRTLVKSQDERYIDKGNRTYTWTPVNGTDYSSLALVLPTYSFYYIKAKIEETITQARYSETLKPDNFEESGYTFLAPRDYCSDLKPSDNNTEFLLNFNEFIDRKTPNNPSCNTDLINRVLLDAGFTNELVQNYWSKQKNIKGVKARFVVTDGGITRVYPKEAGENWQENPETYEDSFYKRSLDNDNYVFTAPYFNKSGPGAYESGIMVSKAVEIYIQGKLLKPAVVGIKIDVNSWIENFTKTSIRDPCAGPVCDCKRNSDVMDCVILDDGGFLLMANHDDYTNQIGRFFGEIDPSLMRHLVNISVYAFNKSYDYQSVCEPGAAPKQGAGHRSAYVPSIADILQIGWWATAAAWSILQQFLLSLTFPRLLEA
- Sequence (P13806 961-1106 partner limits assumed, other chains not shown): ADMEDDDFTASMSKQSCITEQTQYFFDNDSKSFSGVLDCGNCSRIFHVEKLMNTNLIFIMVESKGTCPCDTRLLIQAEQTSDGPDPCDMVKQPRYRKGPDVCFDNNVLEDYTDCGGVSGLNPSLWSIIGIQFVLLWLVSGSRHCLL
- Procedure text: Nitrendipine Binding Assay (NBA)
- Experimental context: 3H-nitrendipine 0.05-0.50 nM, 90 min at 4° C., pH 7.4
- Procedure: The NBA is performed on female, New Zealand white rabbits (1-2 kg) which are sacrificed by cervical dislocation. The heart is immediately removed, cleaned and chopped into small pieces. The tissue is homogenized in 5X volume of 0.05M Hepes buffer, pH 7.4. The homogenate is centrifuged at 4000×g for 10 min; the supernatant is recentrifuged at 42,000×g for 90 min. […]
Counter-ions that a name gives are not always drawn.
Measured property: IC50 (nM)
Answers are plain numbers, in nM.

Worked examples follow.
molecule="CCCCN(CCCC)CCCOc1ccc(C(=O)c2cnc3ncccn23)cc1 [Example 8c, dihydrochloride]" observed=7000
molecule=CCCCN(CCCC)CCCOc1ccc(-c2cn3nc(C)sc3n2)cc1 observed=1100
molecule=CCCCN(CCCC)CCCOc1ccc(-c2cn3c(n2)sc2ccccc23)cc1 observed=3100
molecule="CCCCN(CCCC)CCCOc1ccc(-c2nc3sccn3c2C)cc1 [Example 3, hydrochloride]" observed=1300
molecule="CCCCN(CCCC)CCCOc1ccc(-c2cn3ccsc3n2)cc1 [Example 2, dihydrochloride]" observed=1500

Shift focus to the following entry.
Data request: Query (molecule): CCCCN(CCCC)CCCOc1ccc(-c2cn3nccnc3n2)cc1 [Example 5, hydrochloride] ; field requested: IC50
Data returned: 600

---

- Test system: calcium dependent smooth muscle contraction (trachea)
- Procedure text: Inhibition of Calcium Dependent Smooth Muscle Contraction (ICDSMC)
- Design: species or system dogs
- Experimental context: Canis lupus familiaris; @ 20 μM; 50 mM KCl
Where a name gives a salt, the structure may show the parent alone.
Provide the recorded inhibition at 20 µM for the entries that follow.
Numbers only, in %.

Consider the following illustrative entries.
molecule="CCCCN(CCCC)CCCOc1ccc(-c2cn3nccnc3n2)cc1 [Example 5, hydrochloride]" measured_property="inhibition at 20 µM" observed=85
molecule="CCCCN(CCCC)CCCOc1ccc(-c2cn3cccnc3n2)cc1 [Example 6, dihydrochloride]" measured_property="inhibition at 20 µM" observed=65

Please report inhibition at 20 µM for every entry that follows.
1. CCCCN(CCCC)CCCOc1ccc(-c2cn3c(n2)sc2ccccc23)cc1
2. CCCCN(CCCC)CCCOc1ccc(-c2cn3ccsc3n2)cc1 [Example 2, dihydrochloride]

Data returned:
1. 38
2. 81
